System: K562
ASSAY_PROTOCOL: Antiproliferative activity against human K562 cells assessed as reduction in cell viability after 72 hrs by MTT assay
Assay type: functional, cell-based
CONDITIONS_USED: K562, 72 h
MEASURED_ENDPOINT: IC50
The answer consists of two parts: a number and, after it, its unit.

Exercise: Quick one: IC50 of `COc1cc(S(=O)(=O)/C=C/c2cccc3[nH]ccc23)cc(OC)c1OC` ?
Key: 0.055 µM

* * *

System: MCF7
ASSAY_PROTOCOL: Antiproliferative activity against human MCF7 cells assessed as reduction in cell viability after 48 hrs by MTT assay
Format: functional, cell-based
CONDITIONS_USED: MCF7, 48 h
MEASURED_ENDPOINT: IC50 (nM)
Numeric answer only, unit nM assumed.

Exercise: Quick one: IC50 of COc1cc(C2=NN(C(N)=O)C(c3cn(C)c4ccc(Br)cc34)C2)cc(OC)c1OC (stereo unspecified) ?
Key: 290
